src = ChEMBL document CHEMBL1154744

# maps each entry to its Ki
Target: Human immunodeficiency virus type 1 protease (Human immunodeficiency virus 1, UniProt Q72874, I84V/L63P/V82T)
Sequence (Q72874 entry or part of it I84V/L63P/V82T): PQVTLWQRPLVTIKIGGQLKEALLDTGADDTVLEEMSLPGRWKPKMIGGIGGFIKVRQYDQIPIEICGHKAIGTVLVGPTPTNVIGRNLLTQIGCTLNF
Test: Inhibition of HIV1 protease L63P, V82T, I84V mutant
RECORDED METRIC: Ki (µM)

structure_as_smiles=COC(=O)N[C@H](C(=O)NN(CC[C@@](O)(Cc1ccccc1)C(=O)N[C@H]1c2ccccc2C[C@H]1O)Cc1ccc(Br)cc1)C(C)(C)C recorded_metric=Ki value_reported=0.03
structure_as_smiles=COC(=O)N[C@H](C(=O)NN(CC[C@@](O)(Cc1ccccc1)C(=O)N[C@H]1c2ccccc2C[C@H]1O)Cc1ccc(-c2cccnc2)cc1)C(C)(C)C recorded_metric=Ki value_reported=0.016
